Experiment: Metabolic stability in rat hepatocytes assessed as intrinsic clearance measured per million cells
Assay type: ADME, cell-based, Hepatocyte
Conditions: read-out: CLH
measured-endpoint: hepatocyte CLint (µL/min/1e6 cells)
Just the number please, in µL/min/1e6 cells, no unit attached.

Ask: Answer with the recorded hepatocyte CLint for the compound listed here: CC/C(=C(/c1ccc(/C=C/C(=O)O)cc1)c1[nH]c2ccccc2c1Cl)c1ccc(F)cc1Cl
Reply: 11.1

* * *

Test: Protein binding in human plasma assessed as free fraction
Assay type: ADME, cell-free
measured-endpoint: fraction unbound
When you answer, write just the number.

Ask: Answer with the recorded fraction unbound for the molecule listed here: CC/C(=C(/c1ccc(/C=C/C(=O)O)cc1)c1[nH]c2ccccc2c1Cl)c1ccc(F)cc1Cl
Reply: 0.051

* * *

Assay: Binding affinity to estrogen receptor (unknown origin)
Design: species or system Homo sapiens
Give pIC50 for every item shown.
# log scale: pIC50 equals minus log10 of the concentration in mol/L

Ask: Answer with the recorded pIC50 for the molecule listed here: CC/C(=C(/c1ccc(/C=C/C(=O)O)cc1)c1[nH]c2ccccc2c1Br)c1ccc(F)cc1Cl
Reply: 9.18

Ask: Answer with the recorded pIC50 for the molecule listed here: CC/C(=C(/c1ccc(/C=C/C(=O)O)cc1)c1[nH]c2ccccc2c1Cl)c1ccsc1C#N
Reply: 9.74

Ask: Answer with the recorded pIC50 for the molecule listed here: CC/C(=C(/c1ccc(/C=C/C(=O)O)cc1)c1[nH]c2ccccc2c1Cl)c1ccc(F)cc1Cl
Reply: 9.00

Ask: Answer with the recorded pIC50 for the molecule listed here: CC/C(=C(/c1ccc(/C=C/C(=O)O)cc1)c1[nH]c2ccccc2c1Cl)c1cc(Cl)sc1Cl
Reply: 8.75

Ask: Answer with the recorded pIC50 for the molecule listed here: CC/C(=C(/c1ccc(/C=C/C(=O)O)cc1)c1cc2ccccc2[nH]1)c1ccc(F)cc1Cl
Reply: 8.80

Ask: Answer with the recorded pIC50 for the molecule listed here: CC/C(=C(/c1ccc(/C=C/C(=O)O)cc1)c1[nH]c2ccccc2c1Cl)c1ccccc1C(F)(F)F
Reply: 9.09

Ask: Answer with the recorded pIC50 for the molecule listed here: CC/C(=C(/c1ccc(/C=C/C(=O)O)cc1)c1[nH]c2ccccc2c1Cl)c1ccc(Cl)cc1C#N
Reply: 9.64

Ask: Answer with the recorded pIC50 for the molecule listed here: CC/C(=C(/c1ccc(/C=C/C(=O)O)cc1)c1[nH]c2ccccc2c1C#N)c1ccc(F)cc1Cl
Reply: 9.64

* * *

Assay: AUC (0 to 24 hrs) in CD-1 mouse at 2.5 mg/kg, po
Format: ADME, organism-based
Design: time < 24 hr, dose 2.5 mg/kg, route po
Conditions: CD-1, mouse, in vivo
Give AUC(0-t) at 24 h for every item shown.

Ask: Answer with the recorded AUC(0-t) at 24 h for the compound listed here: CC/C(=C(/c1ccc(/C=C/C(=O)O)cc1)c1[nH]c2ccccc2c1Cl)c1ccc(Cl)cc1C#N
Reply: 0.883 µM·h

Ask: Answer with the recorded AUC(0-t) at 24 h for the compound listed here: CC/C(=C(/c1ccc(/C=C/C(=O)O)cc1)c1[nH]c2ccccc2c1C#N)c1ccc(F)cc1Cl
Reply: 0.049 µM·h

* * *

Assay: Clearance in iv dosed Beagle dog
Assay type: ADME, organism-based, Canis lupus familiaris
Settings: in vivo
measured-endpoint: clearance
Don't forget the unit after the value.

Ask: Answer with the recorded clearance for the molecule listed here: CC/C(=C(/c1ccc(/C=C/C(=O)O)cc1)c1[nH]c2ccccc2c1Cl)c1ccc(F)cc1Cl
Reply: 0.84 mL/min/kg

The origin of these recorded values is ChEMBL document CHEMBL5143670.
